# Tested on: NCI/ADR-RES ovarian
# EXPERIMENT NOTES: NCI-60 one-dose screen, 48 h (100 = growth as untreated, 0 = no growth, -100 = all killed)
# TEST CONDITIONS: 10 µM unless noted
About 83,000 compounds went through this panel and 20% of them were active in at least one assay; those are over-represented in the sample as a whole.
QUANTITY MEASURED: growth (%)
Expressed in %, but write only the number.

INSERT INTO results (compound, quantity_measured, quantity_unit, numeric_readout) VALUES
  ('CCCCNc1nc(NC(C)(C)C)nc(NC(C)(C)C)n1', 'growth', '%', 53.3),
  ('FC(F)(F)c1cccc(CNC2CCN(CCc3ccccc3)CC2)c1', 'growth', '%', 65.2),
  ('CCOC(=O)c1cc2c(n1Cc1cc(OC)cc(OC)c1)-c1oncc1CCC2', 'growth', '%', 6.97),
  ('O=C(/C=C/c1ccc(F)cc1)c1ccc(Nc2nc(NCCO)nc(Nc3ccc(Cl)cc3)n2)cc1', 'growth', '%', 87.2),
  ('O=S1(=O)N(Cc2ccccc2)[C@@H](Cc2ccccc2)[C@H](O)[C@H](O)[C@H](Cc2ccccc2)N1Cc1ccccc1', 'growth', '%', -7.86),
  ('CCOC(=O)CSc1c(-c2ccccc2)c2cc(Cl)ccc2[nH]c1=O', 'growth', '%', 84.3);

So for Cc1ccc(NCCNCC(O)CO)c2c(=O)c3ccccc3sc12 (configuration not stated) , the logged growth turned out to be 26.8

So for NC1C(N)C(N)C1N (configuration not stated) , the logged growth turned out to be 99.6

So for Cc1ccc2[nH]c(=O)cc(-n3nncc3Cn3c4ccccc4c4ccccc43)c2c1 , the logged growth turned out to be 99.5

So for O=C(NC1C(O)OC(CO)C(O)C1O)NS(=O)(=O)c1ccc(Cl)cc1 (configuration not stated) , the logged growth turned out to be 105

So for C1=CC2(C=C1)OC21CCC2(C=CC3(C2)OC3C2CCCCC2)CC1 (configuration not stated) , the logged growth turned out to be 98.4

So for O=c1oc2ccc(I)cc2c(=O)n1-c1ccc(I)cc1F , the logged growth turned out to be 9.94

So for COc1cccc2cc(N(C)c3nc(C)nc4ccsc34)ccc12 , the logged growth turned out to be -6.94

So for O=c1cc(-c2ccccc2)oc2cc(OCc3cn(Cc4ccc(F)cc4)nn3)cc(OCc3cn(Cc4ccc(F)cc4)nn3)c12 , the logged growth turned out to be 70.4

So for Cc1ccc(C)c(-c2csc(Nc3ccc(C)c(C)c3)n2)c1 , the logged growth turned out to be 54.2

So for Nc1nc(-c2ccccc2Br)nn1-c1nc2ccccc2s1 , the logged growth turned out to be 105

So for COc1ccc(-c2nocc2-c2cccs2)cc1 , the logged growth turned out to be 110

So for CN1C(=O)N(C)C2C1NN=c1s/c(=C\c3ccc([N+](=O)[O-])cc3)c(=O)n12 (configuration not stated) , the logged growth turned out to be 61.5

---

# Tested on: HOP-62 NSCLC
# EXPERIMENT NOTES: NCI-60 one-dose screen, 48 h
# TEST CONDITIONS: 10 µM unless noted
Compounds without any hit were thinned out: in the full panel of roughly 83,000, 20% have a hit. The source made the active and inactive calls. Rule for the calls: active = growth percent below 10; inactive = the rest.
In this exercise, the only acceptable responses are active, inactive

INSERT INTO assay_data (molecule, cat) VALUES
  ('O=C(CSc1ccc2nnc(-c3cccc(F)c3)n2n1)Nc1ccc2c(c1)OCO2', 'inactive'),
  ('N#Cc1c(N)nc2c(c1N)C(c1ccc(F)cc1)c1ccc(N)cc1O2 (centres undefined)', 'inactive'),
  ('COc1cc(C(C)n2cc(-c3ccccc3)nn2)ccc1OC1CCCC1 (centres undefined)', 'inactive'),
  ('COC(=O)/C(CCC=C(C)C)=C1\[C@@H](OC(C)=O)C[C@@]2(C)[C@H]1CC(=O)N[C@H]1[C@@]3(C)CCNC(=O)[C@@H](C)[C@@H]3CC[C@@]12C', 'inactive'),
  ('O=C(c1nc2ccccc2[nH]1)C1[C@@H](c2cccc(O)c2)C2CC3CCCCC3N2[C@@]12C(=O)Nc1cc(Cl)ccc12 (some centres undefined)', 'inactive');

[in] Which outcome was entered for the molecule CCOC(=O)C1=C(C)N=c2s/c(=C\c3cc(Cl)ccc3O)c(=O)n2C1c1ccc(OC)cc1 (centres undefined) in this test?
[out] inactive

[in] Which outcome was entered for the molecule O=C(Nc1ccc(-c2nc3cc4ccccc4cc3[nH]2)cc1)c1cccc(Br)c1 in this test?
[out] inactive

[in] Which outcome was entered for the molecule COC(=O)/C(=C\c1c(-c2ccccc2)[nH]c2ccccc12)S(C)(=O)=O in this test?
[out] inactive

[in] Which outcome was entered for the molecule COc1ccc(C)c2sc(N(Cc3cccnc3)C(=O)c3ccc(C#N)cc3)nc12 in this test?
[out] active

---

# Test system: TK-10 renal
# EXPERIMENT NOTES: NCI-60 one-dose screen, 48 h (100 = growth as untreated, 0 = no growth, -100 = all killed)
# TEST CONDITIONS: 10 µM unless noted
About 83,000 compounds went through this panel and 20% of them were active in at least one assay; those are over-represented in the sample as a whole. Active and inactive are the calls of the source. Rule for the calls: active = growth percent below 10; inactive = the rest.
Quick list: growth per entry.

In the examples that follow, each entry is paired with its recorded growth.
INSERT INTO measurements (molecule, result) VALUES
  ('Nc1nc(-c2cnccn2)nn1-c1nc2ccccc2s1', '117% (inactive)'),
  ('O=C(NN1C(=O)CSC1c1ccc(Cl)cc1)c1[nH]c2ccc(F)cc2c1-c1ccccc1 (stereo not given)', '66.9% (inactive)'),
  ('CCN1C(=O)N(CC)C2Nn3c(s/c(=C4\C(=O)N(C(C)C)c5ccccc54)c3=O)=NC21 (stereo not given)', '86.6% (inactive)'),
  ('NC(CCc1nc2ccccc2c(=O)[nH]1)C(=O)O (stereo not given)', '102% (inactive)'),
  ('O=c1oc2ccc(F)cc2c(=O)n1-c1ccc(F)cc1F', '10.4% (inactive)'),
  ('CNCCNc1nc2ccccc2c2c(=O)c3cc(F)ccc3sc12', '60.2% (inactive)'),
  ('O=C1c2ccc3c4c(ccc(c24)C(=O)N1CCCCO)C(=O)N(CCCCO)C3=O', '22.5% (inactive)'),
  ('O=C(/C=C/c1ccccc1)c1ccc(Nc2nc(NCCO)nc(Nc3ccc(Cl)cc3)n2)cc1', '98.5% (inactive)'),
  ('CCOC(=O)c1ccc(N=Cc2sc(=O)[nH]c2O)cc1', '98.4% (inactive)');

Now for a further molecule.
So for CCCCCCCCCCCCCCn1cc(C2=C(c3coc4ccc(OC)cc34)C(=O)NC2=O)c2ccccc21 , the logged growth turned out to be 102% (inactive)

---

# Test system: DU-145 prostate
# EXPERIMENT NOTES: NCI-60 one-dose screen, 48 h
# TEST CONDITIONS: 10 µM unless noted
# Protocol: Cells are grown in 96 well plates and exposed to the test compound for 48 hours. Compounds are tested at a single concentration, which is 10^-5 M for most compounds. The reported endpoint is percent growth (GI% or GIPRCNT), where numbers from 0 - 100% represent growth inhibition, and numbers from -100% - 0 represent cell death. For example, a value of 40 represents 60% growth inhibition. A value of 0 means no net growth occurred over the course of the experiment. […]
The panel holds about 83,000 compounds, 20% with a hit somewhere; the sample as a whole holds those more often. Calls of active or inactive are those of the source. How the source made its calls: active means growth percent below 10; inactive means the rest.
In this exercise, the only acceptable responses are active, inactive

Here's what some known entries look like.
INSERT INTO results (compound, cat) VALUES
  ('O=C(NC1CCN(Cc2ccccc2)CC1)c1cc2nc(-c3ccc(Cl)s3)cc(C(F)(F)F)n2n1', 'inactive'),
  ('O=C(c1nc2ccccc2[nH]1)C1C(c2ccc(F)cc2)C2CC3CCCCC3N2[C@@]12C(=O)Nc1ccc(Cl)cc12 (stereo not given in full)', 'inactive'),
  ('O=c1cc(-c2ccccc2)oc2cc(OCc3cn(Cc4ccc(F)cc4)nn3)cc(OCc3cn(Cc4ccc(F)cc4)nn3)c12', 'inactive'),
  ('CCN1C(=O)N(CC)C2Nn3c(s/c(=C\c4ccccc4F)c3=O)=NC21 (stereo not given)', 'inactive'),
  ('O=c1c(-c2nc3ccccc3[nH]2)cc2ccccc2n1Cc1cn(Cc2ccccc2Cl)nn1', 'inactive'),
  ('CN(CCc1ccccc1)C(=S)N(C(=O)c1ccc([N+](=O)[O-])cc1)c1ccc(Cl)cc1', 'inactive'),
  ('COc1ccc(CSc2nnc(SCC(=O)Nc3ccc(Cl)cc3)s2)cc1', 'inactive'),
  ('NC1(N2SC(S)=C3CCCC=C32)CCCCC1', 'inactive'),
  ('COc1ccc(S(=O)(=O)N(Cc2ccc3c(n2)C=CC(C)(C)O3)C2CCC2)cc1OC', 'active'),
  ('CCc1ccc(CNCC(O)c2ccccc2)cc1 (stereo not given)', 'inactive');

[in] Which outcome was entered for the compound CC(=O)O[C@@H]1/C=C/C(=O)N[C@@H](C)CCC/C=C/[C@@H]2CCC[C@H]21 in this test?
[out] inactive

[in] Which outcome was entered for the compound O=NN(C(=O)NC1CCC(C(=O)O)CC1)C1CCC(C(=O)O)CC1 (stereo not given) in this test?
[out] inactive
